Where do the numbers come from? From patent US12653814B2.

molecular target: human TRPV1 (hTRPV1) (Homo sapiens, UniProt Q8NER1); experiment: Ca2+ influx assay, antagonism against capsaicin in hTRPV1-HEK recombinant cells; conditions: capsaicin 10 nM as activator, Fluo4-NW fluorescence, read-out: hTRPV1 IC50 [cap]
Sequence (Q8NER1 whole entry): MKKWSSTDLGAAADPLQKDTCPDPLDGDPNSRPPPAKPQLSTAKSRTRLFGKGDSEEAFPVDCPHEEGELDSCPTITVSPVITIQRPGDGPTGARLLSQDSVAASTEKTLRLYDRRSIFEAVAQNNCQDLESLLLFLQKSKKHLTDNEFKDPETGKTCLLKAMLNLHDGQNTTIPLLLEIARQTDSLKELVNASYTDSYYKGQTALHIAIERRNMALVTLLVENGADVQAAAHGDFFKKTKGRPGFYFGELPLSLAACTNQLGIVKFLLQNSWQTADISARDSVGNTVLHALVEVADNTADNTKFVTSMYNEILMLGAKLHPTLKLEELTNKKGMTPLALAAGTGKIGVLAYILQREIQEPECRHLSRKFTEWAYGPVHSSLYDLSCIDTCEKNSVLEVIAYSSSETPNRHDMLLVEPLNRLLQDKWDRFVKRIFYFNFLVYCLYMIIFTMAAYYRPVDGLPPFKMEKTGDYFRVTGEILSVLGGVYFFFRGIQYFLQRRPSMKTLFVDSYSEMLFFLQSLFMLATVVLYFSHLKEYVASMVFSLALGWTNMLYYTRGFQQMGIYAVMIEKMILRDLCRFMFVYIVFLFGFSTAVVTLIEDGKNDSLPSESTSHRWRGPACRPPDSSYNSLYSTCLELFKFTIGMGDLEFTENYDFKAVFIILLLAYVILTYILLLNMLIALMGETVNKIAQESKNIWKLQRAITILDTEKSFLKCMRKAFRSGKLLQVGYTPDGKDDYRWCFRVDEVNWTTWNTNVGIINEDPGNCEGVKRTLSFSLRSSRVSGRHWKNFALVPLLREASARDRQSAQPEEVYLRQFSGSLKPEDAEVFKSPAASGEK
pIC50: −log10 of the molar value.
PROPERTY MEASURED: pIC50

[[record]]
compound = "CC(F)(F)c1cc(C2CC2C(=O)Nc2cccc3[nH]c(=O)[nH]c23)n(-c2cccc(Cl)c2)n1 (stereo not drawn)"
property_measured = "pIC50"
result = "< 6.80"

[[record]]
compound = "CCCCCCOc1nc(C(F)(F)F)ccc1/C=C/C(=O)Nc1cccc2[nH]c(=O)[nH]c12"
property_measured = "pIC50"
result = "< 7.30"

[[record]]
compound = "O=C(/C=C/c1ccc(C(F)(F)F)nc1-c1ccc(F)c(Cl)c1)Nc1cccc2[nH]c(=O)[nH]c12"
property_measured = "pIC50"
result = 7.56

